Reference source for all entries: the supplement of paper PMC9112550

# Test system: Escherichia coli TOP10;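 further: peptides expressed intracellularly from a pBAD plasmid library in pooled LB shake-flask culture, induced with 0.3% L-arabinose, DNA abundance read by NGS, three biological replicates, DESeq2 with apeglm shrinkage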
# Test Summary: shrunken log2 fold change of peptide-encoding DNA abundance (4.5 h post-induction vs induction); higher = less antimicrobial activity (less host growth inhibition)
# Cond: time post-induction: 4.5 h; library: site-saturation at positions 5, 18, 19, 20
Respond with true for shrunken log2 fold change values of -0.002 and above, false for values below.

{"Polymer Sequence": "RRIRDRPPRLPRPRPRPKANPRP", "Subject Of Test": "Escherichia coli TOP10", "Group": "true"}
{"Polymer Sequence": "RRIRERPPRLPRPRPRPVPAPRP", "Subject Of Test": "Escherichia coli TOP10", "Group": "true"}
{"Polymer Sequence": "RRIRYRPPRLPRPRPRPRDHPRP", "Subject Of Test": "Escherichia coli TOP10", "Group": "false"}
{"Polymer Sequence": "RRIRSRPPRLPRPRPRPGCPPRP", "Subject Of Test": "Escherichia coli TOP10", "Group": "true"}
{"Polymer Sequence": "RRIRNRPPRLPRPRPRPLPSPRP", "Subject Of Test": "Escherichia coli TOP10", "Group": "true"}
{"Polymer Sequence": "RRIRCRPPRLPRPRPRPETQPRP", "Subject Of Test": "Escherichia coli TOP10", "Group": "true"}
{"Polymer Sequence": "RRIRPRPPRLPRPRPRPKGMPRP", "Subject Of Test": "Escherichia coli TOP10", "Group": "true"}
{"Polymer Sequence": "RRIRMRPPRLPRPRPRPMQYPRP", "Subject Of Test": "Escherichia coli TOP10", "Group": "false"}
{"Polymer Sequence": "RRIRERPPRLPRPRPRPCAWPRP", "Subject Of Test": "Escherichia coli TOP10", "Group": "false"}
{"Polymer Sequence": "RRIRARPPRLPRPRPRPCRHPRP", "Subject Of Test": "Escherichia coli TOP10", "Group": "false"}
{"Polymer Sequence": "RRIRWRPPRLPRPRPRPSIVPRP", "Subject Of Test": "Escherichia coli TOP10", "Group": "false"}
{"Polymer Sequence": "RRIRGRPPRLPRPRPRPFIYPRP", "Subject Of Test": "Escherichia coli TOP10", "Group": "true"}
{"Polymer Sequence": "RRIRTRPPRLPRPRPRPMFHPRP", "Subject Of Test": "Escherichia coli TOP10", "Group": "false"}
{"Polymer Sequence": "RRIRQRPPRLPRPRPRPRILPRP", "Subject Of Test": "Escherichia coli TOP10", "Group": "false"}
{"Polymer Sequence": "RRIRMRPPRLPRPRPRPGLYPRP", "Subject Of Test": "Escherichia coli TOP10", "Group": "false"}
